# System: MDA-MB-453
# protocol-text: normalised response (% of control), CellTiter-Glo; higher = more viable cells (100 = DMSO, 0 = benzethonium chloride kill control)
# protocol-conditions: incubation time: 72 h
measured-attribute: normalised response
Mention the unit after the number when you answer.

COc1c(C)cnc(Cn2cnc3c(Cl)nc(N)nc32)c1C [BIIB021] (1 nM)
106%
C[C@@H]1CCN(C(=O)CC#N)C[C@@H]1N(C)c1ncnc2[nH]ccc12 [Tofacitinib] (500 nM)
94.5%
O=C(c1ccc(OCCN2CCCCC2)cc1)c1c(-c2ccc(O)cc2)sc2cc(O)ccc12 [Raloxifene] (1 nM)
105%

# assay system MDA-MB-453: give normalised response of Nc1nccc(-c2c(-c3ccc(F)cc3)ncn2C2CCCCC2)n1 (10 nM) 106%

# assay system MDA-MB-453: give normalised response of COC1=CC(c2cc3ccccc3[nH]2)=N/C1=C\c1[nH]c(C)cc1C [Obatoclax] (1000 nM) 96.3%
